test system: MDA-MB-231 (triple-negative breast cancer); experiment: Cytotoxic activity assay (MTT); type: cell-based, human; details: SI = IC50 normal cell (MRC-5)/ IC50 cancer cell
Some compounds, each annotated with its measured Selectivity Index (SI) values MDA-MB-231.
MEASUREMENT LABEL: Selectivity Index (SI) values MDA-MB-231

>>> assay_result("C=C1CC[C@H]2C(C)(C)CCC[C@]2(C)[C@H]1CC/C(C)=C/C(=O)N(C)C")
1.3
>>> assay_result("C=C1CC[C@H]2C(C)(C)CCC[C@]2(C)[C@H]1CC/C(C)=C/C(=O)NC")
1.9
>>> assay_result("C=C1CC[C@H]2C(C)(C)CCC[C@]2(C)[C@H]1CC/C(C)=C/C(=O)NN")
1.5
>>> assay_result("C=C1CC[C@H]2C(C)(C)CCC[C@]2(C)[C@H]1CC/C(C)=C/C(=O)NCc1ccccn1")
1.3
>>> assay_result("C=C1CCC2C(C)(C)CCC[C@]2(C)[C@H]1CC/C(C)=C/C=O (stereo partly shown)")
2.0
>>> assay_result("C=C1CC[C@H]2C(C)(C)CCC[C@]2(C)[C@H]1CC/C(C)=C/C(=O)N(C)OC")
1.2
>>> assay_result("C=C1CC[C@H]2C(C)(C)CCC[C@]2(C)[C@H]1CC/C(C)=C/C(=O)NCC(=O)O")
1.0
>>> assay_result("C=C1CCC2C(C)(C)CCCC2(C)C1CCC(C)=CC(=O)NCC(=O)OCC (stereo not shown)")
2.7
>>> assay_result("C=C1CC[C@H]2C(C)(C)CCC[C@]2(C)[C@H]1CC/C(C)=C/C(=O)NCCCCCCCC")
1.0
>>> assay_result("C=CCNC(=O)/C=C(\\C)CC[C@H]1C(=C)CC[C@H]2C(C)(C)CCC[C@]12C")
1.3
>>> assay_result("C=C1CC[C@H]2C(C)(C)CCC[C@]2(C)[C@H]1CC/C(C)=C/C(=O)NOC")
1.2
>>> assay_result("C=C1CC[C@H]2C(C)(C)CCC[C@]2(C)[C@H]1CC/C(C)=C/C(=O)Nc1ccccc1")
1.0
>>> assay_result("C=C1CC[C@H]2C(C)(C)CCC[C@]2(C)[C@H]1CC/C(C)=C/C(=O)NCCc1c[nH]c2ccccc12")
2.1
>>> assay_result("C=C1CCC2C(C)(C)CCCC2(C)C1CCC(C)=CC(=O)O (stereo not shown) [Compound 1, anticopalic acid]")
1.0
>>> assay_result("C=C1CC[C@H]2C(C)(C)CCC[C@]2(C)[C@H]1CC/C(C)=C/C(=O)NCc1ccccc1")
1.0
>>> assay_result("C#CCNC(=O)/C=C(\\C)CC[C@H]1C(=C)CC[C@H]2C(C)(C)CCC[C@]12C")
1.8

* * *

system: MDA-MB-231 (triple-negative breast cancer); experiment: Cytotoxic activity assay (MTT); format: cell-based, human; conditions: Homo sapiens, MDA-MB-231; 48 h exposure, MTT; read-out: Cell lines, IC50 (μM) MDA-MB-231
MEASUREMENT LABEL: IC50

>>> assay_result("C=C1CC[C@H]2C(C)(C)CCC[C@]2(C)[C@H]1CC/C(C)=C/C(=O)NCCc1c[nH]c2ccccc12 [Compound 4h]")
"23.5 µM"
>>> assay_result("C#CCNC(=O)/C=C(\\C)CC[C@H]1C(=C)CC[C@H]2C(C)(C)CCC[C@]12C [Compound 4c]")
"27.5 µM"
>>> assay_result("C=C1CCC2C(C)(C)CCCC2(C)C1CCC(C)=CC(=O)NCC(=O)OCC (centres unmarked) [Compound 4r]")
"23.4 µM"
>>> assay_result("C=C1CC[C@H]2C(C)(C)CCC[C@]2(C)[C@H]1CC/C(C)=C/C(=O)NCc1ccccc1 [Compound 4f]")
"> 120 µM"
>>> assay_result("C=C1CC[C@H]2C(C)(C)CCC[C@]2(C)[C@H]1CC/C(C)=C/C(=O)NCC(=O)OC [Compound 4q]")
"46.2 µM"
>>> assay_result("C=CCNC(=O)/C=C(\\C)CC[C@H]1C(=C)CC[C@H]2C(C)(C)CCC[C@]12C [Compound 4b]")
"114 µM"
>>> assay_result("C=C1CC[C@H]2C(C)(C)CCC[C@]2(C)[C@H]1CC/C(C)=C/C(=O)NOC [Compound 4i]")
"45 µM"
>>> assay_result("C=C1CCC2C(C)(C)CCCC2(C)C1CCC(C)=CC(=O)O (centres unmarked) [Compound 1, anticopalic acid]")
"> 120 µM"
